experimental-details: Soluble aggregates of transiently expressed antibodies
Type: physicochemical
recorded-conditions: Protein A purified antibody
Each record here notes measured % soluble aggregate.
outcome-measure: % soluble aggregate (%)

molecule: J1-183D variant 12: humanised/de-immunised J1-183D: J1-183D_VL_3 + J1-183D_VH_4 (antibody, V domains shown) VH: QVQLVQSGAEVKKPGASVKVSCKASGYTFTDYAIHWVRQAPGQGLEWMGIINTYYGDSKYAQKFQGRVTMTVDTSTSTAYMELSSLRSEDTAVYYCARGYDGFAYWGQGTLVTVSSASTKGP VL: DIQMTQSPSSLSASVGDRVTITCRTSENIYSYLTWYQQKPGKAPKLLIYNAKILDSGVPSRFSGSGSGTDFTLTISSLQPEDFATYYCQHHYDIPWTFGGGTKLEIKRT
value-observed: 0.66
//
molecule: J1-183D variant 10: humanised/de-immunised J1-183D: J1-183D_VL_3 + J1-183D_VH_2 (antibody, V domains shown) VH: QVQLVQSGAELKKPGASVKVSCKVSGYAFTDYAIHWIRQAPGQGLEWMGIINTYYGDSKYAQKFQGRVTMTVDTSTSTAYMELSSLRSEDTAVYYCARGYDGFAYWGQGTLVTVSSASTKGP VL: DIQMTQSPSSLSASVGDRVTITCRTSENIYSYLTWYQQKPGKAPKLLIYNAKILDSGVPSRFSGSGSGTDFTLTISSLQPEDFATYYCQHHYDIPWTFGGGTKLEIKRT
value-observed: 2.89
